Tested on: HSV-1 strain F or KOS
Test: Inhibition of herpes simplex virus (HSV-1) replication in cell culture (BHK-21 cells, glycoprotein C ELISA)
Type: cell-based
Conditions: Human alphaherpesvirus 1, BHK-21, Group 1 Table 1 entries
Method: B) Inhibition of Herpes Simplex Virus (HSV-1) Replication in Cell Culture […] Thereafter, the cells were infected with HSV-1 strain F or KOS (multiplicity of infection =0.05 PFU/cell) in 50 μL of α-MEM supplemented with 2% heat inactivated FBS. […] After 24 hours of incubation at 37°, the extent of viral replication was determined by an ELISA assay; for instance, the following assay that detects the late glycoprotein C of HSV-1. […]
pEC50: −log10 of the molar value.
Note to self: values exactly at 6 are 1. So pEC50 at or above 6 is 1, below is 0.

Some entries whose results are on file:
CCCC(CCC)N(CC(=O)Nc1ccc(-c2csc(N)n2)cc1)C(=O)OCc1ccccc1 [Example 141] : 0
Nc1nc(-c2ccc(NC(=O)CN(Cc3ccccc3)C(=O)c3cc[n+]([O-])cc3)cc2)cs1 [Example 30] : 1
Nc1nc(-c2ccc(NC(=O)CN(Cc3ccc(Cl)cc3)C(=O)C3CCCCC3)cc2)cs1 [Example 45] : 1
Nc1nc(-c2ccc(NC(=O)CN(Cc3ccncc3)C(=O)C3CCCCC3)cc2)cs1 [Example 49] : 1

Next, consider the following molecule.
**Query** Is it the case that Nc1nc(-c2ccc(NC(=O)CN(CCc3ccccc3)C(=O)C3CCCCC3)cc2)cs1 [Example 68] has pEC50 reaching or exceeding 6?
**Result** 1

----------
Experiment: Inhibition of HCMV replication, ELISA assay (Hs-68 cells)
Assay type: cell-based, Human Cytomegalovirus (HCMV)
Details: human, Group 1 Table 1 entries, read-out: Cytotoxic at this concentration (footnote *, ELISA CMV column)
Experimental: C) Inhibition of Human Cytomegalovirus (HCMV) Replication The effect of compounds on the replication of HCMV has been measured by using an ELISA-based assay (ELISA) and a plaque reduction assay (PRA). […] The medium was removed from wells by aspiration. […] After 8 days of incubation at 37°, the extent of viral replication was determined by an ELISA assay which detects the late structural protein p28 of HCMV. […]
READOUT KIND: MCC at 192 h (µM)
Give your result in µM as a bare value.

Measured MCC at 192 h of CCCC(CCC)N(CC(=O)Nc1ccc(-c2csc(N)n2)cc1)C(=O)OC(C)(C)C [Example 111] : 4

----------
Reported IC50 values are given for each entry in this list.
biological target: HSV-1 helicase-primase (Human herpesvirus 1, UniProt P10189+P10236); construct: made in house; host or cells: Sf21 insect cells triply infected with recombinant baculoviruses (UL5, UL8, UL52); assay: HSV-1 DNA-dependent ATPase assay (inhibition of HSV-1 helicase-primase); format: biochemical; conditions: Group 1 Table 3 entries
Sequence (P10192 whole entry): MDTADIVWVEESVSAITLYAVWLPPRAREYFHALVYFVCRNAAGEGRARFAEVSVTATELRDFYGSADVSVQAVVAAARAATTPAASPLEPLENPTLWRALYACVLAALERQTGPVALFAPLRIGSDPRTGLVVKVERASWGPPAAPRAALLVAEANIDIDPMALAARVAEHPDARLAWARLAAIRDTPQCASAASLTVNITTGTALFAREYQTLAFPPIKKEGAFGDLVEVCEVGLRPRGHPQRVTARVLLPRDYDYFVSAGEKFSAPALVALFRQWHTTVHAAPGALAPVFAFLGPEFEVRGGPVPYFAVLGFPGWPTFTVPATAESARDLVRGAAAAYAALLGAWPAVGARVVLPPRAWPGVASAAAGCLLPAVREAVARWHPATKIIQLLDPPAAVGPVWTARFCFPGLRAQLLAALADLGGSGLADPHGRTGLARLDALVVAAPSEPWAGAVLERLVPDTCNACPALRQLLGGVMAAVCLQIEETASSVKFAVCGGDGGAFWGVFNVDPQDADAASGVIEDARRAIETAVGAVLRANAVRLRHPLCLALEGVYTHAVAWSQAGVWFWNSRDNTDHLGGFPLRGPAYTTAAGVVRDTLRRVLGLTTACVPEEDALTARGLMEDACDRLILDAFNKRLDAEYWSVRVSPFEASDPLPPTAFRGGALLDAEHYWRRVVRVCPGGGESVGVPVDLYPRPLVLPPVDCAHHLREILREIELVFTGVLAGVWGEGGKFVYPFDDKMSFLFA
Sequence (P10236 whole entry): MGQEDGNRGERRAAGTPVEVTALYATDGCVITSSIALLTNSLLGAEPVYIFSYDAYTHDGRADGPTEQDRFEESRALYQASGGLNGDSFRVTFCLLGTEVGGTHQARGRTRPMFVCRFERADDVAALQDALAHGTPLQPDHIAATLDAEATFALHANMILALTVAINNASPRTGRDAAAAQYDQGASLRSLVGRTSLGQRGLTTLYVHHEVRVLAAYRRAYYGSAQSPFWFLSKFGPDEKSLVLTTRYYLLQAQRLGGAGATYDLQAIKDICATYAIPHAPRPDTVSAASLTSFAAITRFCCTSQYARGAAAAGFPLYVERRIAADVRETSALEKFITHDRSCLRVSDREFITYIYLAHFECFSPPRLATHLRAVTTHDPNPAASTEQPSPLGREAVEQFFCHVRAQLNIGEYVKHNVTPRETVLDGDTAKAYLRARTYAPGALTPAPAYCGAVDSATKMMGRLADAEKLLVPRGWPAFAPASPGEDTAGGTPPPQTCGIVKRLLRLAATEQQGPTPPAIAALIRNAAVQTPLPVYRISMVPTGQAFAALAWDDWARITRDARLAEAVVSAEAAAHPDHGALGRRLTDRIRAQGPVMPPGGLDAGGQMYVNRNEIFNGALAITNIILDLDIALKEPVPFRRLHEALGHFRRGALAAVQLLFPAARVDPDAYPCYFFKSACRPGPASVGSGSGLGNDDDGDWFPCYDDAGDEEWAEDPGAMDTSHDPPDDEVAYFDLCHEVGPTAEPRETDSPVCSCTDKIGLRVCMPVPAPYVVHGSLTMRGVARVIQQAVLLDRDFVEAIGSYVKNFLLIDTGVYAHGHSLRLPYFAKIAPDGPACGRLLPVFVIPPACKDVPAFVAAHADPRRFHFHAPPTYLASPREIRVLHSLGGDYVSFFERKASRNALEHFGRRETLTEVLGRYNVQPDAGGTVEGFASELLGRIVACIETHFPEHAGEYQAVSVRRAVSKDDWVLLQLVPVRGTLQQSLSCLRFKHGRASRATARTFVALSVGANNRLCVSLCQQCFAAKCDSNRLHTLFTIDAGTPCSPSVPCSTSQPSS
Sequence (P10189 whole entry): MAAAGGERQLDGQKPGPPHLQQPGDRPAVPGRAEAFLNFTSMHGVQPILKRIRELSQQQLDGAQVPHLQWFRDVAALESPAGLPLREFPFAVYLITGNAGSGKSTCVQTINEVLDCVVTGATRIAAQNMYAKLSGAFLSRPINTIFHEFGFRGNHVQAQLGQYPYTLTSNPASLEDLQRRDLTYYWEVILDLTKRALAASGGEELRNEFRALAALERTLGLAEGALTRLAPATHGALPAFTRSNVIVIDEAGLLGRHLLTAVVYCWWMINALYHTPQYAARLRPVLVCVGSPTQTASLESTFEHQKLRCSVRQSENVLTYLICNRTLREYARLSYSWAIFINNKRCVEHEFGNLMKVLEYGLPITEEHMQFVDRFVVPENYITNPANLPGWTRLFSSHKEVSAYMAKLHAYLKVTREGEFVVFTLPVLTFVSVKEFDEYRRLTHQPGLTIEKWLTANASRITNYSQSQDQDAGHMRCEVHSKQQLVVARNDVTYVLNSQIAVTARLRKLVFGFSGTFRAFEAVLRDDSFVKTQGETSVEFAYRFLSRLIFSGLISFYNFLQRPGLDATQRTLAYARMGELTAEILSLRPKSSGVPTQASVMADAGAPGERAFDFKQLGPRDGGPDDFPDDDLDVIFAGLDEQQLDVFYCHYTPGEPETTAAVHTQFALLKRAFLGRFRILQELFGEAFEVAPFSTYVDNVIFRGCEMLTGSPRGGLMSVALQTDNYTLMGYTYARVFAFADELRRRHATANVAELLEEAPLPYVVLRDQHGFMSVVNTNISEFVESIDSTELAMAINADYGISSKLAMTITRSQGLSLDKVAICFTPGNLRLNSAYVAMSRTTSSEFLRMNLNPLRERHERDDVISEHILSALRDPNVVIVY
Give your result in nM as a bare value.

CNc1nc(-c2ccc(NC(=O)CN(CC3CCCCC3)C(=O)c3cccnc3)cc2)cs1 : 10000
CN(C(=O)CN(Cc1ccccc1)C(=O)c1ccncc1)c1ccc(-c2csc(N)n2)cc1 : 1500
O=C(CN(Cc1ccccc1)C(=O)C1CCCCC1)Nc1ccc(-c2cscn2)cc1 : 100
Cc1nc(-c2ccc(NC(=O)CN(Cc3ccccc3)C(=O)C3CCCCC3)cc2)cs1 : 190

# evaluate next
Entry CNc1nc(-c2ccc(NC(=O)CN(Cc3ccccc3)C(=O)OC(C)(C)C)cc2)cs1 , HSV-1 helicase-primase (Human herpesvirus 1, UniProt P10189+P10236) data, IC50 value: 310
